- assay.target: Ribosomal protein S6 kinase beta-1 (Homo sapiens) (UniProt P23443);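 further: reported value is the mean inhibition of p70S6K1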
- Sequence (P23443 whole entry, looked up): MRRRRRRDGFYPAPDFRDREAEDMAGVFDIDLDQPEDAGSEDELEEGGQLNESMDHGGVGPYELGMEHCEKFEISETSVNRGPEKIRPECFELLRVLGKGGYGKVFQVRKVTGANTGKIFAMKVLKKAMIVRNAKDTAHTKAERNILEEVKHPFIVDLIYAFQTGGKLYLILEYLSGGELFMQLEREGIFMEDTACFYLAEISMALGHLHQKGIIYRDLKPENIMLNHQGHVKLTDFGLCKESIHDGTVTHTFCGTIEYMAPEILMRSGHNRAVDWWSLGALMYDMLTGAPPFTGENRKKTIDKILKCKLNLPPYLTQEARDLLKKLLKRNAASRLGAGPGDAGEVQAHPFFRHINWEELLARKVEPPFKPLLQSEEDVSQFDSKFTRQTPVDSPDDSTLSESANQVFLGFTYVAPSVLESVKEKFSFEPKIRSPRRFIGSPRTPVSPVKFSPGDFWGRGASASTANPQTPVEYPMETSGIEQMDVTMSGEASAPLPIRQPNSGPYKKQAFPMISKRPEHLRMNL
- experimental.conditions: at 0.1 µM
measured.parameter: inhibition (%)
The reply should contain only the number, in %.

Check the records and state inhibition for CS(=O)(=O)Nc1ccc(-c2ccc3c(NC(=O)C4CC4)n[nH]c3c2)cc1
2.17

Check the records and state inhibition for CC1=C(C(=O)Nc2ccc3[nH]nc(C)c3c2)C(c2ccc(C(F)(F)F)cc2)CC(=O)N1 (stereo unspecified)
1.6

Check the records and state inhibition for COc1ccc(Nc2ncc(-c3ccccc3)o2)cc1OC
1.51

Check the records and state inhibition for NS(=O)(=O)c1cccc(N/C=C2\C(=O)Nc3ccccc32)c1
2.13

Check the records and state inhibition for CNC(=O)c1ncccc1Nc1nc(Nc2cc3c(cc2OC)CCCN3C(=O)CN(C)C)nc2[nH]ccc12
2.79

Check the records and state inhibition for COc1cccc(-n2ncc3c(N/N=C/c4ccc(C(=O)NCCN(C)C)cc4)ncnc32)c1
4.61

Check the records and state inhibition for COc1cccc(Nc2nccc(-c3cnn4ncccc34)n2)c1
2.02

Check the records and state inhibition for Fc1cccc(COc2ccc(Nc3ncncc3C#Cc3ccccc3)cc2Cl)c1
1.71

Check the records and state inhibition for Cc1nnc(-c2cccc(-c3ccc(C(=O)NCC4CC4)cc3)c2)o1
1.6

Check the records and state inhibition for Cn1c(-c2nonc2N)nc2cnccc21
19.8

Check the records and state inhibition for CS(=O)(=O)CCNCc1ccoc1-c1ccc2ncnc(Nc3ccc(OCc4ccccc4)cc3)c2c1
-1.12

Check the records and state inhibition for Fc1ccc(Nc2nccc(-c3c(-c4ccc(C(F)(F)F)cc4)nn4ncccc34)n2)cc1F
1.31

Check the records and state inhibition for O=C(O[C@H]1CN[C@H](C#Cc2cc3ncnc(Nc4ccc5c(cnn5Cc5ccccc5)c4)c3s2)C1)N1CCOCC1
-0.07

Check the records and state inhibition for COc1c(C(N)=O)cc(-c2ccc(Cl)cc2)cc1-c1ccc(S(N)(=O)=O)cc1
3.07

Check the records and state inhibition for FC(F)(F)CNc1nccc(-c2cnn3ncccc23)n1
0.49

Check the records and state inhibition for NS(=O)(=O)c1ccc(N/N=C2\C(=O)Nc3ccc(C(=O)NCc4ccncc4)cc32)cc1
1.29

Check the records and state inhibition for N#Cc1cccc(Nc2ncc(-c3ccccc3)o2)c1
-0.53

Check the records and state inhibition for CS(=O)(=O)CCNCc1ccc(-c2ccc3ncnc(Nc4ccc(OCc5cccc(C(F)(F)F)c5)cc4)c3c2)o1
1.39

Check the records and state inhibition for CC1(C)CC(n2cnc(-c3ccc(F)cc3)c2-c2ccnc(N)n2)CC(C)(C)N1
1.01

Check the records and state inhibition for c1ccc(-c2n[nH]cc2-c2ccnc(-c3ccc(OCCn4ccnc4)cc3)c2)nc1
0.32

Check the records and state inhibition for CS(=O)(=O)Nc1ccc(-c2cc(-c3ccccc3)cc(C(N)=O)c2N)cc1
-1.22
